Test: Electrochemical behavior of the compound assessed as oxidation potential peak by measuring […] current in DMSO using Ag/AgCl reference electrode by cyclic voltammetry
Format: physicochemical

- COMPOUND: "CC1=NOC(=O)/C1=C/c1cn(-c2ccccc2)cc1-c1ccccc1"
  Activity: "Active"
- COMPOUND: "CC1=NOC(=O)/C1=C/c1c[nH]c2ccccc12"
  Activity: "Active"
- COMPOUND: "CC1=NOC(=O)C1Cc1cccs1 (stereo not drawn)"
  Activity: "Active"
- COMPOUND: "CC1=NOC(=O)/C1=C/c1ccc[nH]1"
  Activity: "Active"
- COMPOUND: "COc1ccc(/C=C2/C(=O)ON=C2C)cc1OC"
  Activity: "Active"
- COMPOUND: "CC1=NOC(=O)/C1=C/c1c(O)ccc2ccccc12"
  Activity: "Active"
- COMPOUND: "CC1=NOC(=O)/C1=C/c1c(Cl)[nH]c2ccccc12"
  Activity: "Active"
- COMPOUND: "CC1=NOC(=O)/C1=C/c1c(-c2ccccc2)[nH]c2ccccc12"
  Activity: "Active"
